Listed here are molecules together with their documented logP.
observed-property: logP

>>> reported_result("CCCc1ccc(C)cc1")
4.6
>>> reported_result("Cc1ccccc1C(C)C")
4.38
>>> reported_result("CCc1cccc(CC)c1")
4.57
>>> reported_result("CCc1cccc(C)c1")
3.98
>>> reported_result("Cc1cccc(C(C)C)c1")
4.5
>>> reported_result("CCc1cccc(C)c1C")
4.34
>>> reported_result("CCc1cc(C)ccc1C")
4.43
>>> reported_result("CCCc1ccccc1C")
4.5
>>> reported_result("CCc1ccc(C)cc1C")
4.47
